The reported measurements were obtained from patent US8945540B2.

system: Staphylococcus aureus; experiment: Microbicidal activity of the myeloperoxidase system (p-MPO, glucose oxidase, glucose) with amino acids in the presence of blood, CFU plate counts; synergy determination from these CFU; type: cell-based; conditions: Table 14; single amino acid 2.5 mM; MPO 4.7 U/ml, GO 4.2 U/ml; in the presence of blood; 50 min
Exercise: for every item that follows, state its recorded Average Viability CFU/ml 50 min.
One number for each entry, in CFU/ml.

Take a look at these entries with their results.
N[C@@H](Cc1ccccc1)C(=O)O [L-Phenylalanine]; 12050000
C[C@H](N)C(=O)O [L-Alanine]; 2215000
CC[C@H](C)[C@H](N)C(=O)O [L-Isoleucine]; 117000

Please give Average Viability CFU/ml 50 min, item by item, for the list that follows.
1. N[C@@H](CO)C(=O)O [L-Serine]
2. NC(=O)CC[C@@H](N)C(=O)O [D-Glutamine]
3. COC(=O)[C@@H](C)N [D-Ala methyl ester]
4. N[C@@H](CCC(=O)O)C(=O)O [L-Glutamic acid]
5. O=C(O)[C@@H]1CCCN1 [L-Proline]
6. N[C@H](Cc1ccccc1)C(=O)O [D-Phenylalanine]
7. NCCCC[C@H](N)C(=O)O [L-Lysine]
8. NCCC(=O)O [Beta alanine]

Result string:
940000
15050000
8850000
13700000
1835000
7950000
16950000
6000000

Please give Average Viability CFU/ml 50 min, item by item, for the list that follows.
1. N[C@@H](Cc1ccc(O)cc1)C(=O)O [L-Tyrosine]
2. N=C(N)NCCC[C@@H](N)C(=O)O [D-Arginine]
3. CC(C)C[C@@H](N)C(=O)O [D-Leucine]
4. O=C(O)[C@@H]1C[C@@H](O)CN1 [L-Hydroxyproline]

Result string:
[1450000, 15000000, 163500, 11550000]

###

Exercise: for every item that follows, state its recorded Log Reduction 50 min.
Test system: Staphylococcus aureus
Test: Microbicidal activity of the myeloperoxidase system (p-MPO, glucose oxidase, glucose) with amino acids in the presence of blood, CFU plate counts; synergy determination from these CFU
Format: cell-based
Details: Table 11; single amino acid 2.5 mM; MPO 4.7 U/ml, GO 4.2 U/ml; in the presence of blood; 50 min
Method: Bacterial suspensions, specifically Staphylococcus aureus in this example, were prepared by the shake flask method to achieve late log to early stationary phase growth. Bacteria were grown 24 hours in trypticase soy broth (TSB) at 35° C. The cultures were centrifuged at 4,000 rpm for 10 minutes and the supernatants removed. The pellet was collected and washed twice with sterile 0.9% normal saline (NS). […]
Answers are plain numbers.

N=C(N)NCCC[C@@H](N)C(=O)O; 0.3
N[C@H](CO)C(=O)O; 1.5

Let us move to another entry and its Log Reduction 50 min.
Query string: Look up Log Reduction 50 min: N[C@H](Cc1ccccc1)C(=O)O
Result string: 0.5

###

test system: Staphylococcus aureus; test: Microbicidal activity of the myeloperoxidase system (p-MPO, glucose oxidase, glucose) with amino acids in the presence of blood, CFU plate counts; synergy determination from these CFU; assay type: cell-based; conditions: Table 3; amino acid 5 mM (none: 0 mM); MPO 38 U/ml; GO 33.3 U/ml; blood
readout kind: Log 10 (CFU + 1) Survivors 60 min
One number for each entry.

Take a look at these entries with their results.
N[C@@H](Cc1ccc(O)cc1)C(=O)O; 5.8
O=C(O)c1cccnc1; 6.6
CC[C@H](C)[C@H](N)C(=O)O; 0.0
O=C(O)[C@@H]1C[C@@H](O)CN1 [L-Hydroxyproline]; 0.0
CC(=O)C(=O)O; 6.7

Please give Log 10 (CFU + 1) Survivors 60 min, item by item, for the list that follows.
1. N[C@@H](CC(=O)O)C(=O)O
2. C[C@H](O)[C@@H](N)C(=O)O
3. NC(=O)C[C@H](N)C(=O)O
4. C[C@@H](N)C(=O)O
5. NCCS(=O)(=O)O
6. CC(C)C[C@H](N)C(=O)O

Result string:
[5.8, 5.9, 6.8, 0.0, 5.9, 0.0]

Query string: Look up Log 10 (CFU + 1) Survivors 60 min: O=C(O)CNC(=O)c1ccccc1
Result string: 5.9
